# TESTED ON: C-C chemokine receptor type 2 (Homo sapiens, UniProt P41597)
# Sequence (P41597 whole entry): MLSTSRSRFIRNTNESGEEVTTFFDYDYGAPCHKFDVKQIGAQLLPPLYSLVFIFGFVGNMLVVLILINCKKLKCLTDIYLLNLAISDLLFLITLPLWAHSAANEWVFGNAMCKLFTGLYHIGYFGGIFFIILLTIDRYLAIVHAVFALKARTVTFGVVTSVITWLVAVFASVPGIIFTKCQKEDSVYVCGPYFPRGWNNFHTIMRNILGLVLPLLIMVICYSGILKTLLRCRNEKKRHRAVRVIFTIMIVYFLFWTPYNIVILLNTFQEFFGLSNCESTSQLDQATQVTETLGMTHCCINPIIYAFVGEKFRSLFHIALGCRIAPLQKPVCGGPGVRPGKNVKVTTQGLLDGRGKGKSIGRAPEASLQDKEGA
# METHOD: Antagonist activity at human CCR2
PROPERTY NAME: IC50 (nM)

* O=C(/C=C/c1cc(F)cc(F)c1)N1CCC(C(CO)N2CCC(c3c[nH]c4ncccc34)CC2)CC1 (racemic) | 6
* O=C(/C=C/c1cc(F)c(F)c(F)c1)N1CCC(C(CO)N2CCC(c3c[nH]c4ncccc34)CC2)CC1 (racemic) | 7
* O=C(/C=C/c1cc(F)c(F)c(F)c1)N1CCC(CN2CCC(c3c[nH]c4ncccc34)CC2)CC1 | 1300

----------
# TESTED ON: UniProt:P08684
# Sequence (P08684 whole entry): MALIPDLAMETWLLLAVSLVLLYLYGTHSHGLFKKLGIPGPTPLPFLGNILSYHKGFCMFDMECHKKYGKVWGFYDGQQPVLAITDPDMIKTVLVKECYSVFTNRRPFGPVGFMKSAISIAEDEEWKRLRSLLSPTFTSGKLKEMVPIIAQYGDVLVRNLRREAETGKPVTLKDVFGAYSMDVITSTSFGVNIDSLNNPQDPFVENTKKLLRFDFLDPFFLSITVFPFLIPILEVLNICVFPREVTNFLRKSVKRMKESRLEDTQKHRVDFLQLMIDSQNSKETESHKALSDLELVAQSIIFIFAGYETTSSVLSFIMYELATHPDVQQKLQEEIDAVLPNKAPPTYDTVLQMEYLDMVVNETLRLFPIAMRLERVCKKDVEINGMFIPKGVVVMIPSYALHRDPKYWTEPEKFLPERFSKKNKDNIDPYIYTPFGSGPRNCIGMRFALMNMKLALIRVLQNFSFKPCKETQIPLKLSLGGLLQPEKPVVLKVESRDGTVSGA
# METHOD: Inhibition of human CYP3A4 using 7-benzyloxyquinoline as substrate
# Format: ADME
PROPERTY NAME: IC50

* O=C(/C=C/c1cc(F)cc(F)c1)N1CCC([C@@H](CO)N2CCC(c3c[nH]c4ncccc34)CC2)CC1 | > 40 µM
